Molecular target: soybean lipoxygenase (Glycine max)
Sequence (P08170 1-839): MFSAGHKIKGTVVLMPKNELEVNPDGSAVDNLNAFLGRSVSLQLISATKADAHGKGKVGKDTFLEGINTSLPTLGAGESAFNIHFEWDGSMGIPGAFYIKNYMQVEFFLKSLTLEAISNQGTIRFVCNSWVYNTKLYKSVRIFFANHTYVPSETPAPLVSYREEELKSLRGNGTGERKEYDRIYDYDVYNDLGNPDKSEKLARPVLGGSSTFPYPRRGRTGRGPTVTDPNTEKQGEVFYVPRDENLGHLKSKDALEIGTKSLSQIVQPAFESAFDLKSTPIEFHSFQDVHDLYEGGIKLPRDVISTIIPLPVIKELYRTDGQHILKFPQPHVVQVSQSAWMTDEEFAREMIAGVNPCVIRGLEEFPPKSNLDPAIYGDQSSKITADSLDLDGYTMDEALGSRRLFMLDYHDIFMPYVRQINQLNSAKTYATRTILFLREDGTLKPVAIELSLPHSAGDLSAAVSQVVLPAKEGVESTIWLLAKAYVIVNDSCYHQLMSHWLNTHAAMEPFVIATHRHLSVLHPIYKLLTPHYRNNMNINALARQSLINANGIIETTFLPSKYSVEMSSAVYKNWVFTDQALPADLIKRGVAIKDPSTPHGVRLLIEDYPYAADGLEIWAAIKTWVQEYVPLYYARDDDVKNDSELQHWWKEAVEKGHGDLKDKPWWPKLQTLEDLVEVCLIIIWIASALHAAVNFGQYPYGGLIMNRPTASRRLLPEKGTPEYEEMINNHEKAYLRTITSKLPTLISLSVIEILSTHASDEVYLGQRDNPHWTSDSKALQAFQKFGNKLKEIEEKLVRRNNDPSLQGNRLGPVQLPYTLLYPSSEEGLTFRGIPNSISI
Test: Soybean lipoxygenase inhibition in vitro
Type: biochemical
Details: 0.1 mM sodium linoleate, 234 nm
experimentalReadout: LOX (%) inhibition
Kindly provide the numeric value in % only, without the unit symbol.

Below, 3 molecules whose answers are already recorded.
O=c1/c(=C/c2cccc(F)c2)sc2nc(C34CC5CC(CC(C5)C3)C4)nn12 | 27.15
O=c1/c(=C/c2ccc(F)cc2)sc2nc(C34CC5CC(CC(C5)C3)C4)nn12 | 16.13
COc1cc(/C=c2\sc3nc(C45CC6CC(CC(C6)C4)C5)nn3c2=O)ccc1O | 6.67

Read the next record carefully.
Report LOX (%) inhibition for O=c1/c(=C/c2ccc(Br)cc2)sc2nc(C34CC5CC(CC(C5)C3)C4)nn12 please.
8.07

FYI, the data here is from paper PMC7866232.
